Tested on: Poly(dA-dU)oligonucleotide
Assay: Binding affinity to polyA-polyU dsRNA (unknown origin) assessed as change in melting temperature at 0.5 ratio of compound to RNA by spectrophotometric analysis
Assay type: nucleic-acid assay
Endpoint: ΔTm (°C)

{"Smiles Entry": "Clc1ccc2[nH]c(-c3ccc(Cn4cc(CCCc5cn(Cc6ccc(-c7nc8cc(Cl)ccc8[nH]7)o6)nn5)nn4)o3)nc2c1", "ΔTm (°C)": 0}
{"Smiles Entry": "CC(C)NC(=N)c1ccc2[nH]c(-c3ccc(Cn4cc(COc5ccc(OCc6cn(Cc7ccc(-c8nc9cc(C(=N)NC(C)C)ccc9[nH]8)o7)nn6)cc5)nn4)o3)nc2c1.Cl.Cl", "ΔTm (°C)": 0}
{"Smiles Entry": "CC(C)NC(=N)c1ccc2[nH]c(-c3ccc(Cn4cc(CCCc5cn(Cc6ccc(-c7nc8cc(C(=N)NC(C)C)ccc8[nH]7)o6)nn5)nn4)o3)nc2c1.Cl.Cl", "ΔTm (°C)": 0.8}

A: Cl.Cl.N=C(N)c1ccc2[nH]c(-c3ccc(Cn4cc(COc5ccc(OCc6cn(Cc7ccc(-c8nc9cc(C(=N)N)ccc9[nH]8)o7)nn6)cc5)nn4)o3)nc2c1
B: Fc1ccc2[nH]c(-c3ccc(Cn4cc(COCc5cn(Cc6ccc(-c7nc8cc(F)ccc8[nH]7)o6)nn5)nn4)o3)nc2c1
C: Cl.Cl.c1cc2[nH]c(-c3ccc(Cn4cc(CCCc5cn(Cc6ccc(-c7nc8cc(C9=NCCN9)ccc8[nH]7)o6)nn5)nn4)o3)nc2cc1C1=NCCN1
Ask | In this exercise, place the 3 compounds in ascending sequence of their recorded ΔTm. State the ranking by listing the labels in the requested order.
Reply | A, B, C
